Data origin: the supplement of paper PMC10126150

Tested on: ATP;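 also: ATP exposure 15 min at 22 °C before imaging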
Experiment: switch fluorescence ratio, 500 uM ATP over buffer (Cy3 cluster intensity, sum of 5 cycles each) (fold (ratio)); higher = stronger signal-on switching upon ATP binding; sequences stand for … in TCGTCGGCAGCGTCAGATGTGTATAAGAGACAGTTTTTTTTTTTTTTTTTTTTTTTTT…TC
Settings: aptamer strand: ATP DNA aptamer (quencher-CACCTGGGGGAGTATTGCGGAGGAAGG + anchor), 100 nM annealed; ATP concentration: 500 uM
Documented switch fluorescence ratio across a set of sequences
attributeMeasured: switch fluorescence ratio

{"columns": ["sequenceRecord", "testSystem", "attributeMeasured", "recordedMeasurement"],
 "data": [
  ["CGGTGGCGTA", "ATP", "switch fluorescence ratio", 0.998],
  ["GATCGCTTGG", "ATP", "switch fluorescence ratio", 1.04],
  ["ATGAAAGCGT", "ATP", "switch fluorescence ratio", 1.03],
  ["AGGGGTATAG", "ATP", "switch fluorescence ratio", 0.995],
  ["GGAATTATCG", "ATP", "switch fluorescence ratio", 0.988],
  ["AATTTAGGCC", "ATP", "switch fluorescence ratio", 1.02],
  ["GCAAAAAAAT", "ATP", "switch fluorescence ratio", 1.04],
  ["AAGGGGGCGG", "ATP", "switch fluorescence ratio", 1],
  ["AATGATGGGT", "ATP", "switch fluorescence ratio", 0.985],
  ["AGGGAACCGC", "ATP", "switch fluorescence ratio", 1.02],
  ["TATTGTTTCG", "ATP", "switch fluorescence ratio", 1.02],
  ["CGGCGTAGGG", "ATP", "switch fluorescence ratio", 1.12],
  ["TTGGGGGACA", "ATP", "switch fluorescence ratio", 1.01],
  ["TGCTTCCCTC", "ATP", "switch fluorescence ratio", 1.1],
  ["TTTTTGACGG", "ATP", "switch fluorescence ratio", 1],
  ["GGGGGGGG", "ATP", "switch fluorescence ratio", 0.994],
  ["AGATGGCGCT", "ATP", "switch fluorescence ratio", 0.967],
  ["AATTAGCTGA", "ATP", "switch fluorescence ratio", 1.01],
  ["ATTGGGCTTC", "ATP", "switch fluorescence ratio", 1.01],
  ["TTAACGATGA", "ATP", "switch fluorescence ratio", 1.01],
  ["AGCGCTTGTG", "ATP", "switch fluorescence ratio", 1.02]
]}

====

Test system: ATP;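 also: ATP exposure 15 min at 22 °C before imaging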
Assay: switch fluorescence ratio, 500 uM ATP over buffer (Cy3 cluster intensity, sum of 5 cycles each) (fold (ratio)); higher = stronger signal-on switching upon ATP binding; sequences stand for … in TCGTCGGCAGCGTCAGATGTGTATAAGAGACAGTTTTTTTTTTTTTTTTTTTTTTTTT…TC
Conditions: aptamer strand: ATP DNA aptamer (quencher-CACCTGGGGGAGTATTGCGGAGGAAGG + anchor), 100 nM annealed; ATP concentration: 500 uM
switch fluorescence ratio by entry:
attributeMeasured: switch fluorescence ratio

{"columns": ["sequenceRecord", "attributeMeasured", "recordedMeasurement"],
 "data": [
  ["GGGATTAGAT", "switch fluorescence ratio", 0.982],
  ["AAGTTGATAA", "switch fluorescence ratio", 1],
  ["TTGTGGGGGC", "switch fluorescence ratio", 0.991],
  ["GGGGGGGTCG", "switch fluorescence ratio", 0.983],
  ["AACTCCAGTA", "switch fluorescence ratio", 1.01],
  ["TCTACATGAT", "switch fluorescence ratio", 1.05],
  ["GCGGCGGAAG", "switch fluorescence ratio", 1.02],
  ["CGGGCTTTTT", "switch fluorescence ratio", 1.02],
  ["TATTTGTGCG", "switch fluorescence ratio", 0.988],
  ["CAGTTAGATA", "switch fluorescence ratio", 1.02]
]}
